# TEST_SUMMARY: NCI Yeast Anticancer Drug Screen. Data for the sgs1 mgt1 strain (AID 161);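 also: 0% = growth of cultures given vehicle only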
# SETUP_CONDITIONS: S. cerevisiae sgs1 mgt1 strain, at 50.0 µM, active compounds read high
This is part of a sample that, as a whole, favours compounds with a hit. Of some 79,000 tested, about 15% had one in any assay.
ASSAY_METRIC: growth inhibition (%)
Number in %, nothing else.

Illustrative cases are given below, each with its answer.
CCOC(=O)c1ccc(C=O)cc1	-4.95
Nc1ccc(C(=O)N/N=C/C=C/c2ccccc2)cc1	16.6

Record request: growth inhibition value, item COc1cc(O)c2c(c1)C(=O)c1cc3c(c(O)c1C2=O)C(O)C(OC)C(C)(O)C3O (configuration not stated)
72

What value of measured growth inhibition is listed for CCCC(=O)OCCOc1ccccc1 ?
11

For the molecule shown here, CCNC1CC(C(C)(C)NCC)CC=C1C (configuration not stated) , give the reported growth inhibition.
-38.7
